Test system: Mtb strain H37Rv ATCC 27294
assay.remarks: Microplate Alamar Blue Assay (MABA), susceptible strain
Type: cell-based
details: Mycobacterium tuberculosis, Mtb H37Rv, strain sensitive to all first- and second-line drugs; MABA; triplicate; read-out: MIC
Here the recorded MIC is given for each entry.

Record excerpt, results attached:
compound | MIC
CC1=C(Cn2cc(CSCc3ccco3)nn2)C(=O)c2ccccc2C1=O [Compound 10e] | > 100 µg/mL
CC1=C(Cn2cc(CSc3ccc(Cl)cc3)nn2)C(=O)c2ccccc2C1=O [Compound 10b] | > 100 µg/mL

Shift focus to the following entry.
Enquiry: Given CC1=C(Cn2cc(C[Se]c3c(C)cc(C)cc3C)nn2)C(=O)c2ccccc2C1=O , state its recorded MIC.
Return: > 99.9 µg/mL
